biological target: Melatonin receptor type 1A (Homo sapiens, UniProt P48039); assay: Intrinsic activity evaluated on [35S]GTP -gamma-S binding in Chinese hamster ovarian (CHO) cells, stably expressing human Melatonin receptor type 1A; type: functional, cell-based
Sequence (P48039 whole entry): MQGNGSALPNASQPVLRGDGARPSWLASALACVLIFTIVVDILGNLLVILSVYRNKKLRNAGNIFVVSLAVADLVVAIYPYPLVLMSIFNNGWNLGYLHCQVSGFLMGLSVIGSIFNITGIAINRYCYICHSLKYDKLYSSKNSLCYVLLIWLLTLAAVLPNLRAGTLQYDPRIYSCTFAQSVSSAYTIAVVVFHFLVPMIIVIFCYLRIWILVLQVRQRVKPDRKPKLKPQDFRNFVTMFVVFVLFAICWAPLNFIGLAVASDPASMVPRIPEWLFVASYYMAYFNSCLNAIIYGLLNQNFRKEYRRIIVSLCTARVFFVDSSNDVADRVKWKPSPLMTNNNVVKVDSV
Consider the following compounds and their measured pEC50 readings.
Note on pEC50: it is the negative log10 of concentration, concentration in mol/L.

Observe how each entry below is paired with its result.
>>> result_number("COc1cccc(Cc2oc3ccc(OC)cc3c2CCNC(C)=O)c1")
7.43
>>> result_number("C=CCC(=O)NCCc1c(Cc2ccccc2)oc2ccc(OC)cc12")
7.60
>>> result_number("COc1ccc2oc(CC3CCCCC3)c(CCNC(C)=O)c2c1")
6.32

The compound listed as C=CCC(=O)NCCc1c(Cc2cccc(OC)c2)oc2ccc(OC)cc12 has a reported pEC50 of 6.86

The compound listed as COc1ccc2oc(-c3ccccc3)c(CCNC(C)=O)c2c1 has a reported pEC50 of 9.77

The compound listed as COc1ccc2oc(Cc3ccccc3)c(CCNC(C)=O)c2c1 has a reported pEC50 of 7.68

----------
biological target: Melatonin receptor type 1A (Homo sapiens, UniProt P48039); assay: Binding affinity on human melatonin receptor type 1A stably transfected in human embryonic kidney (HEK 293) using 2-[125I]iodomelatonin as radioligand.; type: cell-based, HEK293
Param label: returns Condition met when Ki < 9 nM, returns Condition not met otherwise, including exact equality.

See these solved cases before continuing.
>>> group_label("CCCCCCOc1ccc2oc(Cc3ccccc3)c(CCNC(C)=O)c2c1")
"Condition met"
>>> group_label("C/C=C/C(=O)NCCc1c(-c2ccccc2)oc2ccc(OC)cc12")
"Condition met"
>>> group_label("COc1ccc2oc(CCCc3ccccc3)c(CCNC(C)=O)c2c1")
"Condition not met"
>>> group_label("CCc1ccc2oc(Cc3ccccc3)c(CCNC(C)=O)c2c1")
"Condition not met"

Hello, I'm reviewing records and need to know if Ki of COc1ccc2oc(Cc3cccc(C(F)(F)F)c3)c(CCNC(C)=O)c2c1 is below 9 nM. Could you check?
Condition not met

Hello, I'm reviewing records and need to know if Ki of COc1cccc(Cc2oc3ccc(OC)cc3c2CCNC(C)=O)c1 is below 9 nM. Could you check?
Condition not met

Hello, I'm reviewing records and need to know if Ki of COc1ccc2oc(Cc3cccnc3)c(CCNC(C)=O)c2c1 is below 9 nM. Could you check?
Condition not met

Hello, I'm reviewing records and need to know if Ki of C=CC(=O)NCCc1c(Cc2ccccc2)oc2ccc(OC)cc12 is below 9 nM. Could you check?
Condition not met

Hello, I'm reviewing records and need to know if Ki of CNC(=O)NCCc1c(-c2ccccc2)oc2ccc(OC)cc12 is below 9 nM. Could you check?
Condition met

Hello, I'm reviewing records and need to know if Ki of CCc1ccc2oc(Cc3cccc(OC)c3)c(CCNC(C)=O)c2c1 is below 9 nM. Could you check?
Condition not met

Hello, I'm reviewing records and need to know if Ki of COc1ccc2oc(Cc3cccc(Cl)c3)c(CCNC(C)=O)c2c1 is below 9 nM. Could you check?
Condition met

Hello, I'm reviewing records and need to know if Ki of COc1ccc2oc(Cc3ccccc3)c(CCNC(=O)c3ccco3)c2c1 is below 9 nM. Could you check?
Condition not met

Hello, I'm reviewing records and need to know if Ki of COc1ccc2oc(CC3CCCCC3)c(CCNC(C)=O)c2c1 is below 9 nM. Could you check?
Condition not met

Hello, I'm reviewing records and need to know if Ki of C=CCC(=O)NCCc1c(-c2ccccc2)oc2ccc(OC)cc12 is below 9 nM. Could you check?
Condition met

Hello, I'm reviewing records and need to know if Ki of COc1ccc2oc(Cc3ccccc3)c(CCNC(=O)CI)c2c1 is below 9 nM. Could you check?
Condition met

Hello, I'm reviewing records and need to know if Ki of COc1ccc2oc(Cc3c(Cl)cccc3Cl)c(CCNC(C)=O)c2c1 is below 9 nM. Could you check?
Condition not met
